- subject.of.test: T1, human vascular endothelial growth factor receptor-2 Fc chimera (KDR-Fc) (human, UniProt P35968 20-764)
- T1 construct: range 1-764; also called human VEGFR-2; VEGF-R2-Fc; not shown: human IgG1 Fc
- measurement.protocol: radioactive equilibrium binding, 1 nM KDR-Fc
- Method: To prepare ³⁵S-labeled binding proteins for analysis, mRNA was prepared as described above for RNA-protein fusion production but the linker ligation step was omitted. […] 50 μA of the reaction mixture and elution were dried onto a LumaPlate-96 (Packard) and the amount of ³⁵S on the plate was measured using a TopCount NXT instrument (Packard). […] Data was analyzed using the GraphPad Prizm software (GraphPad Software, Inc, San Diego, Calif.), fitted using a one site, non-linear binding equation.
quantity.measured: Binding to 1 nM KDR, % (%)

3′C8 PR4 (designed binder, Del 1-8) EVVAATPTSLLISWRHPHFPTRYYRITYGETGGNSPVQEFTVPLQPPTATISGLKPGVDYTITGYAVTEGLNDHELMIPISINYRT : 19
2′Del F5 PR4 (designed binder, Del 1-8) EVVAATPTSLLISWRHPHFPTRYYRITYGETGGNSPVQEFTVPLQPPTATISGLKPGVDYTITGYAVTLVHNDRELLTPISINYRT : 22
1′DelE7 PR4 (designed binder, Del 1-8) EVVAATPTSLLISWRHPHFPTRYYRITYGETGGNSPVQEFTVPLQPPTATISGLKPGVDYTITGYAVTVAQNGHELFTPISINYRT : 22
